Target: Recombinant human HDAC2 (Homo sapiens)
Construct: Full length human HDAC2-FLAG was expressed in baculovirus infected Sf9 cells; FLAG (C); made in house; host or cells: Sf9 (baculovirus)
Sequence (Q92769 whole entry): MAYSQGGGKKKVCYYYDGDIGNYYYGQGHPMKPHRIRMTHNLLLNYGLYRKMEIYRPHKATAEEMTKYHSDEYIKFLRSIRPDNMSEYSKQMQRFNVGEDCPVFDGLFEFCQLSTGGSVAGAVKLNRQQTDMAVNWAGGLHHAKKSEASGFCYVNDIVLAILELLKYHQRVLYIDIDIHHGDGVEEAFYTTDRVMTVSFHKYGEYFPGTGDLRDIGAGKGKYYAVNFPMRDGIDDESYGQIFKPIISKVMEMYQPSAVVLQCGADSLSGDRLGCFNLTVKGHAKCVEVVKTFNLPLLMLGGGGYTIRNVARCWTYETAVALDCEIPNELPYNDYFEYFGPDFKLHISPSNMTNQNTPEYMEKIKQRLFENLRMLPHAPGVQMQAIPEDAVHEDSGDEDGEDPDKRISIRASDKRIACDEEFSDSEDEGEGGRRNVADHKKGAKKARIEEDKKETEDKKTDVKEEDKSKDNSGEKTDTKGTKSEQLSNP
Experiment: Human HDAC enzyme inhibitor Fluor-de-Lys assay, HDAC2
Assay type: biochemical
Readout kind: IC50 (nM)
# output: bare number, implied unit nM

Recorded IC50 of CCN1CCC2(CC1)C[C@@H]2C(=O)N[C@@H](CCCCCC(=O)CC1CC1)c1ncc(-c2cc3ccc(C)nc3cc2OC)[nH]1 , please. 8

Recorded IC50 of CCC(=O)CCCCC[C@H](NC(=O)C1=NOC2(CCN(C)CC2)C1)c1ncc(-c2cc3ccccc3nc2OC)[nH]1 , please. 5.3

Recorded IC50 of CCC(=O)CCCCC[C@H](NC(=O)[C@H]1CC12CCN(CC)CC2)c1ncc(-c2ccc3c(=O)n(C4CC4)ccc3c2)o1 , please. 13.5

Recorded IC50 of CCC(=O)CCCCC[C@H](NC(=O)[C@H]1CC12CCN(C)CC2)c1nc(Cl)c(-c2cc3ccccc3nc2O)[nH]1 , please. 337

Recorded IC50 of CCC(=O)CCCCC[C@H](NC(=O)[C@H]1CC12CCN(C)CC2)c1ncc(-c2cc(OC)ncc2F)o1 , please. 251

Recorded IC50 of CCC(=O)CCCCC[C@H](NC(=O)C1(CC(C)C)CC2(CN(C)C2)C1)c1ncc(-c2ccc3nc(C)ccc3c2)[nH]1 , please. 11.9

Recorded IC50 of CCC(=O)CCCCC[C@H](NC(=O)C1=NOC2(CCN(CC)CC2)C1)c1ncc(-c2cc3ccc(C)nc3cc2OC)[nH]1 , please. 2.1

----------
Task for the reader: assign each of the following compounds its reported IC50.
Molecular target: HDAC6 (Homo sapiens)
Sequence (Q9UBN7 whole entry): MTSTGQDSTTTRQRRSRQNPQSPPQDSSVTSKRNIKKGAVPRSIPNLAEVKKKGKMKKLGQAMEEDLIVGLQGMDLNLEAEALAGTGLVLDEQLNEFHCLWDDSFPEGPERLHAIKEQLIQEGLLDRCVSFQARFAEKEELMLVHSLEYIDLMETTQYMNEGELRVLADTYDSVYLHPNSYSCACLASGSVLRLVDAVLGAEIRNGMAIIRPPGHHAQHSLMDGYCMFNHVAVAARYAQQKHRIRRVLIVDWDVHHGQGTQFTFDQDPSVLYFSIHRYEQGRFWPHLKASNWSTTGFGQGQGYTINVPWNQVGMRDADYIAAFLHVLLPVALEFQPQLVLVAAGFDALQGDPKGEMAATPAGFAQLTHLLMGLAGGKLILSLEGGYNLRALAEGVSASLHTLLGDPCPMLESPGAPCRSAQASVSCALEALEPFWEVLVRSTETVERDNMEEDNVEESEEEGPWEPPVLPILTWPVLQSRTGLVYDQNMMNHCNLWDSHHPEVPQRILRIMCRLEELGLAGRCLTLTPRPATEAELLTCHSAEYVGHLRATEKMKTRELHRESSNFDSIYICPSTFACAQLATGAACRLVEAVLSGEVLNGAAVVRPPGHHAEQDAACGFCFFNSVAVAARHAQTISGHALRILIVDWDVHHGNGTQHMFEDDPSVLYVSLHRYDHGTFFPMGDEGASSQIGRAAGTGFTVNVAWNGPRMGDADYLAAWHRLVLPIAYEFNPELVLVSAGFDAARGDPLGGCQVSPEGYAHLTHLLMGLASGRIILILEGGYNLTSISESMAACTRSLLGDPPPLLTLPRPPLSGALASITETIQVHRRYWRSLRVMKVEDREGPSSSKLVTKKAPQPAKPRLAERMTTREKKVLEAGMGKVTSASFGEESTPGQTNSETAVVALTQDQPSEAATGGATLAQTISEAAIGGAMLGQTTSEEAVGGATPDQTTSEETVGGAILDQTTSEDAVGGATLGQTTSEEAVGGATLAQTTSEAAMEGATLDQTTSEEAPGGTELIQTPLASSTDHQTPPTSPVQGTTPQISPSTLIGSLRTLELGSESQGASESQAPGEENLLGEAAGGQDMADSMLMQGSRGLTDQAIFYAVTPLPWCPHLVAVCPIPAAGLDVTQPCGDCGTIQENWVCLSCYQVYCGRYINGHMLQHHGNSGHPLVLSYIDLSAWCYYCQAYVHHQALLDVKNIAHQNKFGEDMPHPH
Experiment: Human HDAC enzyme inhibitor Fluor-de-Lys assay, HDAC6
Format: biochemical
Conditions: HDAC6, Fluor-de-Lys assay

Recorded IC50 of CCC(=O)CCCCC[C@H](NC(=O)C1=NOC2(CCN(C)CC2)C1)c1ncc(-c2ccc(-c3cccnc3)cc2OC)o1 , please. > 900 nM

Recorded IC50 of CCC(=O)CCCCC[C@H](NC(=O)[C@H]1CC12CCCN(C)C2)c1ncc(-c2cc3ccccc3nc2OC)[nH]1 (some centres unmarked) [Compound 287] , please. 351 nM

Recorded IC50 of CCC(=O)CCCCC[C@H](NCC1CC1)c1ncc(-c2cc3ccc(C)nc3cc2OC)[nH]1 , please. > 900 nM

Recorded IC50 of CCC(=O)CCCCCC(NC(=O)C1CCC2(CC1)OC(=O)c1cnccc12)c1nnc(-c2cc3ccccc3nc2OC)o1 (centres unmarked) , please. 1990 nM

Recorded IC50 of CCC(=O)CCCCC[C@H](NC(=O)C1=NOC2(CCN(C)CC2)C1)c1ncc(-c2ccc(Cl)cc2OC)o1 , please. 309 nM

----------
Task for the reader: assign each of the following molecules its reported EC50.
Test system: KARN cells (Jurkat 2C4)
Assay: cells
Assay type: cell-based
Settings: Homo sapiens, Jurkat, read-out: Karn EC50 (nM) 5% NHS, 5% normal human serum; luciferase induction, 100% = 2 μM SAHA
# output: bare number, implied unit nM

Recorded EC50 of CCC(=O)CCCCC[C@H](NCC1CC1)c1ncc(-c2cc3ccc(C)nc3cc2OC)[nH]1 , please. 10200

Recorded EC50 of CCC(=O)CCCCC[C@H](NC(=O)C1=NOC2(CCN(C)CC2)C1)c1ncc(-c2ccc(-c3cnccn3)cc2OC)o1 , please. 274

Recorded EC50 of CCC(=O)CCCCC[C@H](NC(=O)CC1CC2(C1)CN(C(C)=O)C2)c1ncc(-c2ccccc2)[nH]1 , please. 10200

Recorded EC50 of CCC(=O)CCCCC[C@H](NC(=O)C1CC12CCN(CC)CC2)c1nc(-c2ccc(F)cc2)[nH]c1-c1cccs1 (stereo partly shown) , please. 2880

Recorded EC50 of CCC(=O)CCCCCC(NC(=O)C1CC12CCN(CC)CC2)c1nc(-c2ccc(F)cc2)[nH]c1-c1ccnn1C (stereo not shown) , please. 2340

Recorded EC50 of CCC(=O)CCCCC[C@H](NC(=O)[C@H]1CC[C@@]2(CC1)OC(=O)c1cccnc12)c1ncc(-c2ccccc2)[nH]1 , please. 9330

Recorded EC50 of CCC(=O)CCCCC[C@H](NC(=O)[C@H]1CC12CCN(CC1CC1)CC2)c1ncc(-c2cc3ccc(C)nc3cc2F)[nH]1 , please. 22

Recorded EC50 of CCCn1cc(-c2[nH]c(-c3ccc(F)cc3)nc2C(CCCCCC(=O)CC)NC(=O)C2CC23CCN(CC)CC3)cn1 (stereo not shown) , please. 6040

Recorded EC50 of CCC(=O)CCCCC[C@H](NC(=O)[C@H]1CC12CCN(Cc1ccccc1)CC2)c1ncc(-c2cc3ccccc3nc2OC)[nH]1 , please. 175

Recorded EC50 of CCC(=O)CCCCC[C@H](NC(=O)[C@@H]1CC12CCCN(C)C2)c1ncc(-c2cc3ccccc3nc2OC)[nH]1 (stereo partly shown) , please. 1010

Recorded EC50 of CCC(=O)CCCCC[C@H](NC(=O)C1CCC2(CC1)CNC2)c1nnc(-c2cc3ccccc3nc2OC)o1 , please. 9270

Recorded EC50 of CCC(=O)CCCCC[C@H](NC(=O)C1CC12CCN(C)CC2)c1ncc(-c2cc3ccccc3nc2OC)[nH]1 (stereo partly shown) , please. 272

Recorded EC50 of CCC(=O)CCCCC[C@H](NC(=O)[C@H]1CC12CCN(CC1CC1)CC2)c1ncc(-c2cc3ccc(C)nc3cc2OC)o1 , please. 10

Recorded EC50 of CCC(=O)CCCCC[C@H](NC(=O)C1=NOC2(CCN(CC3CC3)CC2)C1)c1ncc(-c2cc3ccc(C)nc3cc2F)[nH]1 , please. 262

Recorded EC50 of CCC(=O)CCCCC[C@H](NC(=O)[C@H]1CC12CCN(CC)CC2)c1ncc(-c2cc3ccccc3nc2O)[nH]1 , please. 295

Recorded EC50 of CCC(=O)CCCCC[C@H](NC(=O)[C@H]1CC12CCN(C)CC2)c1ncc(-c2ccccc2F)[nH]1 , please. 519

Recorded EC50 of CCC(=O)CCCCC[C@H](NC(=O)[C@H]1CC12CCN(C)CC2)c1ncc(-c2cc3ocnc3cc2OC)o1 , please. 593

Recorded EC50 of CCC(=O)CCCCC[C@@H](NC(=O)C1CCC2(CC1)CNC2)c1ncc(-c2ccccc2)[nH]1 , please. 11800

Recorded EC50 of CCC(=O)CCCCC[C@H](NC(=O)[C@H]1CC12CCN(C)CC2)c1ncc(-c2ccc(C(=O)NC3CCOC3)cc2)[nH]1 (stereo partly shown) , please. 7840

----------
Task for the reader: assign each of the following molecules its reported IC50.
Target: Recombinant human HDAC8 (Homo sapiens, UniProt Q9BY41)
Construct: purchased Enzo Life Sciences BML-SE145-0100
Sequence (Q9BY41 1-377): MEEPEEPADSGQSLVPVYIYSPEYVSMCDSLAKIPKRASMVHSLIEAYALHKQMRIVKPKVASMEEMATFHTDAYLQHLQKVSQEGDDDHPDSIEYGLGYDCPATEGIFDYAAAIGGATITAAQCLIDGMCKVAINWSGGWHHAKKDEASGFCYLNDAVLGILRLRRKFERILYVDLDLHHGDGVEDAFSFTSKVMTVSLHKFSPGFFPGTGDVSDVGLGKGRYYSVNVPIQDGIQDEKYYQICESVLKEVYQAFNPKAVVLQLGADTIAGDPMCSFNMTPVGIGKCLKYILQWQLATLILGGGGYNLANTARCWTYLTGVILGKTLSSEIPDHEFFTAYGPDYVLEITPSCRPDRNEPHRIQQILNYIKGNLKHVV
Assay: Human HDAC enzyme inhibitor Fluor-de-Lys assay, HDAC8
Format: biochemical

Recorded IC50 of CCC(=O)CCCCC[C@H](NC(=O)C1=NOC2(CCN(C)CC2)C1)c1ncc(-c2cc3ccc(C)nc3cc2OC)o1 , please. > 0.9 µM

Recorded IC50 of CCC(=O)CCCCC[C@H](NC(=O)C1CN(C)C1)c1ncc(-c2ccc3c(c2)C2CCC3C2)[nH]1 (stereo partly drawn) , please. 3.07 µM

Recorded IC50 of CCC(=O)CCCCC[C@H](NC(=O)[C@H]1CC12CCN(C)CC2)c1ncc(-c2ccc3nc(N(C)C)ccc3c2)[nH]1 , please. > 1.5 µM

----------
Biological target: Recombinant human HDAC8 (Homo sapiens, UniProt Q9BY41)
Construct: purchased Enzo Life Sciences BML-SE145-0100
Assay: Human HDAC enzyme inhibitor Fluor-de-Lys assay, HDAC8
Type: biochemical
Conditions: recombinant human HDAC8, Fluor-de-Lys assay
pIC50: −log10 of the molar value.
Task for the reader: assign each of the following compounds its reported pIC50.

Recorded pIC50 of CCC(=O)CCCCC[C@H](NC(=O)CC1CC2(C1)CN(C)C2)c1nnc(-c2cc3ccccc3nc2OC)o1 , please. < 4.35

Recorded pIC50 of CCC(=O)CCCCC[C@H](NCC1CC1)c1ncc(-c2cc3ccc(C)nc3cc2OC)[nH]1 , please. < 6.05

Recorded pIC50 of CCC(=O)CCCCC[C@H](NC(=O)[C@H]1CC12CCN(C)CC2)c1ncc(-c2cc3ccncc3cc2OC)o1 , please. < 6.05

Recorded pIC50 of CCC(=O)CCCCC[C@H](NC(=O)[C@H]1CC[C@@]2(CC1)OC(=O)c1cccnc12)c1nnc(-c2cc3ccccc3nc2OC)o1 , please. < 4.35

Recorded pIC50 of CCC(=O)CCCCC[C@H](NC(=O)[C@@H]1CC12CN(C)C2)c1ncc(-c2cc3ccc(C)nc3cc2OC)o1 (single isomer, unassigned) , please. < 6.05
